Hello, the source for this data is paper PMC7619385, in case you need it.

Assign ΔTm at 10 µM to each entry below.
system: LmxCLK1 (Leishmania mexicana, UniProt E9AMP2)
Sequence (E9AMP2 1-422): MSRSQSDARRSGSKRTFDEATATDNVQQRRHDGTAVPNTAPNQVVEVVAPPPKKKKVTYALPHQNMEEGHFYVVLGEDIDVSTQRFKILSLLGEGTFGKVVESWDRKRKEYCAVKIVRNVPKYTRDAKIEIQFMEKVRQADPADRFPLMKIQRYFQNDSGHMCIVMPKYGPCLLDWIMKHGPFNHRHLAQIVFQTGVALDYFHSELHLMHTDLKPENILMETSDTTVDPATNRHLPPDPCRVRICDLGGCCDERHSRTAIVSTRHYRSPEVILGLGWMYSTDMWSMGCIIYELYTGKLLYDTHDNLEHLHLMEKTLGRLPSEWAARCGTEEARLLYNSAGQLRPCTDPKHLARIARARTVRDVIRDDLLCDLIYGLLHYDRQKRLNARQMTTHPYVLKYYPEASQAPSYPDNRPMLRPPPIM
assayProtocol: biochemical
Format: binding
protocolConditions: DSF, 10 µM compound, 2 µM LmxCLK1, Run 1; read-out: ΔTm Run 1
Field format: number, assumed °C, no unit text.

Qu. Param readout = ΔTm at 10 µM; param system = LmxCLK1 (Leishmania mexicana, UniProt E9AMP2); param query = CN(C)C/C=C/C(=O)Nc1cc2c(Nc3ccc(F)c(Cl)c3)ncnc2cc1O[C@H]1CCOC1 ; response: value
Ans. 0.1

Qu. Param readout = ΔTm at 10 µM; param system = LmxCLK1 (Leishmania mexicana, UniProt E9AMP2); param query = Oc1c2ccccc2c2c3c(cccc13)N=N2 ; response: value
Ans. 0.1

Qu. Param readout = ΔTm at 10 µM; param system = LmxCLK1 (Leishmania mexicana, UniProt E9AMP2); param query = O=C(Nc1ccc(OC(F)(F)F)cc1)c1sccc1NCc1ccnc2ccccc12 ; response: value
Ans. 0.4

Qu. Param readout = ΔTm at 10 µM; param system = LmxCLK1 (Leishmania mexicana, UniProt E9AMP2); param query = Cc1ccc2nc(NCCN)c3ncc(C)n3c2c1 ; response: value
Ans. -0.1

Qu. Param readout = ΔTm at 10 µM; param system = LmxCLK1 (Leishmania mexicana, UniProt E9AMP2); param query = Nc1nccc(Oc2ccc(NC(=O)c3c[nH]cc(-c4ccc(F)cc4)c3=O)cc2F)c1Cl ; response: value
Ans. -0.1
